For each of the compounds below, state its composite z-score.
ASSAY SUMMARY: binders from COS7 lysate, DM2A8 probe, primary screen, torsin A project, cell lysate, small-molecule microarray, fluorescence 635/667 (AID 1065)
CONDITION SET: higher = more signal, COS7 lysate expressing mutant human TOR1A

Requested read-out: composite z-score. Entry: COC(=O)[C@H](C)NC(=O)CCC1CC(OC(=O)NCc2ccc3c(c2)OCO3)CC2(CCCC(COC(=O)NCc3cccc(C(F)(F)F)c3)O2)O1 (some centres undefined)
0.325

Query CCOC(=O)[C@H](CC(C)C)NC(=O)CCC1CC(OC(=O)NCc2cccc3ccccc23)CC2(CCCC(COC(=O)NCCOc3ccccc3)O2)O1 (some centres undefined) next
0.374

Query COC(=O)CC=C[C@@H](C)[C@@H](C=NO[C@@H]1O[C@H](COC(C)=O)[C@@H](OC(C)=O)[C@H](OC(C)=O)[C@H]1OC(C)=O)NS(=O)(=O)c1ccc(C)cc1 next
0.969

Query Cn1c(=O)n2n(c1=O)[C@H]1[C@H](O)[C@@H]3O[C@@H]3C(=NOCc3ccccc3)[C@H]1CC2 next
0.125

Query O=C(NN=C1C[C@@H](O)[C@@H](O)[C@@H]2[C@@H]3C(=O)N(C4CCCCC4)C(=O)[C@@H]3CC[C@H]12)OCc1ccccc1 next
0.553

Query CO[C@@H]1COC(=O)CC=C[C@@H](C)[C@@H]2C=C[C@H](O)[C@@H](COC(=O)CC=C[C@H]1C)O2 next
1.7

Query C#CCCCON=C1C[C@@H](O)[C@@H](O)[C@@H]2[C@@H]3C(=O)N(C(C)(C)C)C(=O)[C@@H]3CC[C@@H]12 next
0.0189

Query C=Cc1ccc([C@H]2N[C@H](C(=O)O)CC[C@@H]2C)cc1 next
0.056

Query COc1ccc(COC(=O)NN=C2C[C@@H](O)[C@@H](O)[C@@H]3[C@@H]4C(=O)N(c5ccc(F)cc5F)C(=O)[C@@H]4CC[C@H]23)cc1 next
-0.398

Query CC(C)CCN1CCc2nc(COc3ccccc3)c3c(c2C1)CO[C@@H](C)C3 next
0.369

Query CCOC(=O)[C@H](Cc1ccccc1)NC(=O)CCC1CC(OC(=O)NCCc2ccc(F)cc2)CC2(CCCC(COC(=O)NCCc3ccccc3OC)O2)O1 (some centres undefined) next
0.238

Query O=C1C[C@@H](O)[C@@H](O)[C@@H]2[C@@H]3C(=O)N(Cc4ccccc4)C(=O)[C@@H]3CC[C@@H]12 next
0.311

Query CC(C)=CCCC(C)=CCON=C1C[C@@H](O)[C@@H](O)[C@@H]2[C@@H]3C(=O)N(c4ccc(F)cc4F)C(=O)[C@@H]3CC[C@@H]12 next
0.87

Query O=C(NN=C1C[C@@H](O)[C@@H](O)[C@@H]2[C@@H]3C(=O)N(C[C@@H]4CCCO4)C(=O)[C@@H]3CC[C@H]12)OCc1ccccc1 next
0.349
